subject-of-test: purified recombinant HCMV polymerase (UL54) (Human cytomegalovirus, UniProt P08546)
Construct: made in house; host or cells: Sf21 insect cells (baculovirus)
Sequence (P08546 whole entry): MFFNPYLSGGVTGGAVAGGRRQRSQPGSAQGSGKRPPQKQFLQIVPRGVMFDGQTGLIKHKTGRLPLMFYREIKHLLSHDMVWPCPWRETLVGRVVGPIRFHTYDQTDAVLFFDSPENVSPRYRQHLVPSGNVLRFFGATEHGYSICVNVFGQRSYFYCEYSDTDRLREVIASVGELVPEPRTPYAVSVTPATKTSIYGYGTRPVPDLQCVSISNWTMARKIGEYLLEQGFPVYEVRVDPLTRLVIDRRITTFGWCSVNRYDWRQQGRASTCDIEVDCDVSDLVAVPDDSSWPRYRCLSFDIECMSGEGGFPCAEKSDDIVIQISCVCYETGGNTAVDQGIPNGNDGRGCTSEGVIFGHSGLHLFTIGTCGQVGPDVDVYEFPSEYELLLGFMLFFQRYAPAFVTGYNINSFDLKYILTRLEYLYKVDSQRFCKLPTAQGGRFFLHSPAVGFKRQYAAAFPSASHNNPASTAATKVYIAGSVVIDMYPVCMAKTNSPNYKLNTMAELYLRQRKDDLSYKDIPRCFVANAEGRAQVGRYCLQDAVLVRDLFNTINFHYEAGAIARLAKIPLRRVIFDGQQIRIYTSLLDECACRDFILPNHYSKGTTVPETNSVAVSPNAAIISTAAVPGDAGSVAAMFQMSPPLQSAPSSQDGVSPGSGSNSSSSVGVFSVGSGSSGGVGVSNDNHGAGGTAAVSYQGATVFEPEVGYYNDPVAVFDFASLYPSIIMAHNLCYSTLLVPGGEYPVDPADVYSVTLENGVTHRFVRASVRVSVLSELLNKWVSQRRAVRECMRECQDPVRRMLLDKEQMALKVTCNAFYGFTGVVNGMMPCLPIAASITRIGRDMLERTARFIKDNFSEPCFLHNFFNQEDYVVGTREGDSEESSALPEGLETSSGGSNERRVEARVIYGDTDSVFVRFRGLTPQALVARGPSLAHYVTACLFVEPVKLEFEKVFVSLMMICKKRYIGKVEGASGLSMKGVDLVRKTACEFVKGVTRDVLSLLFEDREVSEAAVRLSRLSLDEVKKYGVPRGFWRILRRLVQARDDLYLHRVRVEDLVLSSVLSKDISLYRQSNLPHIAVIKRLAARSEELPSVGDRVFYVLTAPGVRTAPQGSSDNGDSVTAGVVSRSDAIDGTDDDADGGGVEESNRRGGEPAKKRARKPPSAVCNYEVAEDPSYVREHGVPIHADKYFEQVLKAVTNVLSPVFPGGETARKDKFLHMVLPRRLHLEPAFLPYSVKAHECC
run-description: HCMV Polymerase LANCE TR-FRET Assay
Format: biochemical
test-settings: 2 nM GST-UL54, 37° C. for 30 min, 5% DMSO; read-out: Example 34 IC50
reported-property: log10 IC50 (log10 of the value in nM)
Log10 applied to IC50; unit prior to transform: nM.

Observed log10 IC50 on purified recombinant HCMV polymerase (UL54) (Human cytomegalovirus, UniProt P08546), entry CN(C)c1nc2c3cc(C(=O)NCc4ccc(Cl)cc4)c(=O)n(CC(=O)N4CC(C)(F)C4)c3ncc2n1C [Compound 2017] , equals 2.32

Reading of log10 IC50 for Cc1nc2cnc3c(cc(C(=O)NCc4ccc(C#N)cc4)c(=O)n3CC(=O)N3CC(C)(F)C3)c2n1C [Compound 3001] with purified recombinant HCMV polymerase (UL54) (Human cytomegalovirus, UniProt P08546): 2.15

Form field log10 IC50 for item CC1(F)CN(C(=O)Cn2c(=O)c(C(=O)NCc3ccc(Cl)cc3)cc3c4c(cnc32)nc2n4CCOC2)C1 [Compound 5002] on purified recombinant HCMV polymerase (UL54) (Human cytomegalovirus, UniProt P08546): 1.84

Lab note: compound Cc1nc2cnc3c(cc(C(=O)NCc4ccc(Cl)cc4)c(=O)n3CC(=O)N3CC(F)(CO)C3)c2n1C [Compound 1065] tested on purified recombinant HCMV polymerase (UL54) (Human cytomegalovirus, UniProt P08546); recorded log10 IC50 was 1.54

The reported log10 IC50 value, purified recombinant HCMV polymerase (UL54) (Human cytomegalovirus, UniProt P08546), for COc1nc2cnc3c(cc(C(=O)NCc4ccc(Cl)cc4)c(=O)n3CC(=O)N3CC(C)(C#N)C3)c2n1C [Compound 1074] reads 1.88

Known value: purified recombinant HCMV polymerase (UL54) (Human cytomegalovirus, UniProt P08546) log10 IC50 of the compound Cc1nc2cnc3c(cc(C(=O)NCc4ccc(Cl)cc4)c(=O)n3CC(=O)N3CC(C)(F)C3)c2nc1C [Compound 5037] equals 2.64

Noted log10 IC50 for COc1nc2c(cc(C(=O)NCc3ccc(Cl)cc3)c(=O)n2CC(=O)N2CC(C)(F)C2)c2c1nc(C)n2C [Compound 5035] , tested on purified recombinant HCMV polymerase (UL54) (Human cytomegalovirus, UniProt P08546): 2.38
